Hello, the source for this data is patent US20080044360A1, in case you need it.

- experimental_target: T1, rat collagen, acid soluble, type I, rat tail (Upstate 08-115) (rat, UniProt P02454 152-1207; P02466 86-1125)
- T1 construct: tissue extract, gelled and dried in wells; also called dried rat collagen
- T1 sequence (P02454 152-1207, chain 1 of 2): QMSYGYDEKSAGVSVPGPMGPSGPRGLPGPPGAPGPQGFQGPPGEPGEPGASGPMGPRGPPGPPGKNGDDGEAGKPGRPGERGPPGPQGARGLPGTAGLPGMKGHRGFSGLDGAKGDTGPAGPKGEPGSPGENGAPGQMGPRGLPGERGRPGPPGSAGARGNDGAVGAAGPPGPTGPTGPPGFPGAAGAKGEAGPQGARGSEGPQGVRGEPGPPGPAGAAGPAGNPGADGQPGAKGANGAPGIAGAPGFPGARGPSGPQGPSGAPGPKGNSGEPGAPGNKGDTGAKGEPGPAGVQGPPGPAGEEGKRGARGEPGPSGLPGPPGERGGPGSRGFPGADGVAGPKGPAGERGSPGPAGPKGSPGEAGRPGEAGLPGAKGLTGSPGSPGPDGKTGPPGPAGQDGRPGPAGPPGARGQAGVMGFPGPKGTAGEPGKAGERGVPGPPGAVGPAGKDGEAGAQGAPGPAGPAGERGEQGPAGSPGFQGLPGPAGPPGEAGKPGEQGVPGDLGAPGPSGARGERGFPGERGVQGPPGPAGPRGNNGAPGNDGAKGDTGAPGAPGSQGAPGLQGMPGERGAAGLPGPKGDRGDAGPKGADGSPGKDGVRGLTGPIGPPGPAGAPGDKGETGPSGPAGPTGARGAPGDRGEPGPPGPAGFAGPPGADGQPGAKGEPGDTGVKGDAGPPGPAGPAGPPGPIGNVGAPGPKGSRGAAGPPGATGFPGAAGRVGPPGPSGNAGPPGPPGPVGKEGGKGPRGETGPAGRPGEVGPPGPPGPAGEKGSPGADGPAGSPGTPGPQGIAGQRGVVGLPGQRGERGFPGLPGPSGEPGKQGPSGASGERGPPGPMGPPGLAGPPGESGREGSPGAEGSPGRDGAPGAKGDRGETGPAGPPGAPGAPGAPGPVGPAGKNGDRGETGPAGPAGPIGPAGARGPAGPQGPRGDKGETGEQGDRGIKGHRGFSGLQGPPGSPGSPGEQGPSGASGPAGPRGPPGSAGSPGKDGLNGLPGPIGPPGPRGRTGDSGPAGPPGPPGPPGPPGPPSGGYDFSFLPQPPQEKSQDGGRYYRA
- T1 sequence (P02466 86-1125, chain 2 of 2): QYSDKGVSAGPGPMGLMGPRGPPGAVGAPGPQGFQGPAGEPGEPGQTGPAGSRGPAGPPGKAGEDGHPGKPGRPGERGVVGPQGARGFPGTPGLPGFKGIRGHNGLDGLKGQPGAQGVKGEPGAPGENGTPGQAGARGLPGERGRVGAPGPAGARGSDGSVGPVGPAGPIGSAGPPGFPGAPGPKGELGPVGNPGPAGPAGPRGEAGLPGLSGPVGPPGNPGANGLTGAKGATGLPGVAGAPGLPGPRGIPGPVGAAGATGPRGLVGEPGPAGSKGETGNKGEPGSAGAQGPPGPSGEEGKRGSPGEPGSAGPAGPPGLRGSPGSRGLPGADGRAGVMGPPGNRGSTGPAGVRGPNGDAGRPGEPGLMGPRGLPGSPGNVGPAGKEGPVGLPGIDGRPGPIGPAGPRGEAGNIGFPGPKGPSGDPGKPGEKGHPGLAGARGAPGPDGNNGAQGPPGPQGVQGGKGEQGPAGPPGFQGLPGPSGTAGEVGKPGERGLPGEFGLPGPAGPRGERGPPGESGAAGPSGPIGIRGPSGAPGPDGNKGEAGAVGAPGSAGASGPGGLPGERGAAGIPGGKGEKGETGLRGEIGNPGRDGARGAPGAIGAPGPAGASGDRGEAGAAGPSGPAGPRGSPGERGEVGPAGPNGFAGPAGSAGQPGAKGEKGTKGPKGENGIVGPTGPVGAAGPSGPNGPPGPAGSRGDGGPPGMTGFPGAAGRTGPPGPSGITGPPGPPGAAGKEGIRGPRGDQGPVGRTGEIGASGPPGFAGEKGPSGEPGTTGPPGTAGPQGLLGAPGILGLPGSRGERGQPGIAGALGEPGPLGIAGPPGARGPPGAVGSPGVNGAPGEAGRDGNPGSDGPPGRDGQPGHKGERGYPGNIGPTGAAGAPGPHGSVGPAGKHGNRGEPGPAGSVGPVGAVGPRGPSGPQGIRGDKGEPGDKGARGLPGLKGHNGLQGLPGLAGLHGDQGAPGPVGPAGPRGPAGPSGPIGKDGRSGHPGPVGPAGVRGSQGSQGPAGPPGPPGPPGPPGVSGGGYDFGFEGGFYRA
- assay_info: dried collagen assay; further: test concentration or dose not given here
Bridge positions count the residues as written; N and C are the ends. Ends that are not written are not given here.
# Lookup of reported % bound keyed by entry
Reply with the number and its unit after it.

q: Item DWTCSGNHLTWYCNYG (disulfide 4-13 (inferred), cyclic, disulfide) [SEQ ID NO 118] has what recorded % bound?
a: 67%

q: Item GQWTCSGAEYTWHCNYE (disulfide 5-14 (inferred), cyclic, disulfide) [SEQ ID NO 143] has what recorded % bound?
a: 51%

q: Item QWTCSGDEYAWHCNYE (disulfide 4-13 (inferred); not fully specified (N-terminus, C-terminus), cyclic, disulfide) [SEQ ID NO 146] has what recorded % bound?
a: 77%

Please look at the following binder next.
q: Item GQWTCSGDEYTWHCAYE (disulfide 5-14 (inferred); not fully specified (C-terminus), cyclic, disulfide) [SEQ ID NO 149] has what recorded % bound?
a: 82%
